- EXPERIMENT: chemical genetic growth profiling, strain panel (AID 1159580);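 further: tested at 20 µM; growth read once vehicle control cultures reached saturation at 30 °C; 1 = growth at the plate median or of vehicle wells; lower values mean less growth of the strain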
- SETUP CONDITIONS: S. cerevisiae deletion strains, growth OD, strain wtn01, hits give low values
The campaign covered roughly 5,500 compounds. About 2,000 (36%) were called active. About 18% were inconclusive and are not listed. This is one part of the list.
RESULT TYPE: normalized growth
// response body must contain only the number

Past entries and their recorded results:
# MOLECULE, normalized growth
data = [
    ("CC(=O)NCc1c(I)c(NC(C)=O)c(I)c(C(=O)O)c1I", 0.989),
    ("CC(C)(Oc1ccc(CCNC(=O)c2ccc(Cl)cc2)cc1)C(=O)O", 1.02),
    ("NC12CC3CC(CC(C3)C1)C2", 1.01),
]

Exercise: Entry CC(C)=CCCC1(C)C=Cc2c(O)c3c(c(CC=C(C)C)c2O1)OC12C(CC4CC1C(C)(C)OC2(C/C=C(/C)C(=O)O)C4O)C3=O (configuration not stated) : reported normalized growth = ?
Solution: 0.972

Exercise: Entry NNC(=O)c1ccncc1 : reported normalized growth = ?
Solution: 0.98

Exercise: Entry Nc1ccccc1C(=O)CC(N)C(=O)O (configuration not stated) : reported normalized growth = ?
Solution: 0.94

Exercise: Entry CC1=CCC2C3(C)C1=CC(=O)OC3CC1C(C)(C)CC(O)C(O)C12C (configuration not stated) : reported normalized growth = ?
Solution: 1.01

###

- EXPERIMENT: chemical genetic growth profiling, strain panel (AID 1159580)
- SETUP CONDITIONS: S. cerevisiae deletion strains, growth OD, locus YPL106C, strain sse1, hits give low values
Among all 5,500 compounds or so, about 2,000 (36%) were called active. Another 18% or so got no clear call; they are omitted. Some of the results follow.
RESULT TYPE: normalized growth
// response body must contain only the number

Past entries and their recorded results:
# COMPOUND, NUMBER
measured = [
    ("COc1cc(C(=O)O[C@H]2CC[C@@]3(C)[C@@H]4CC[C@H]5[C@]6(O)C[C@H](O)[C@@]7(O)[C@@H](CN8C[C@@H](C)CC[C@H]8[C@@]7(C)O)[C@]6(O)C[C@@]53O[C@]24O)cc(OC)c1OC", 0.968),
    ("NC(Cc1c[nH]c2ccccc12)C(=O)O (stereo not drawn)", 1.02),
    ("C/C=C(/C)C(=O)OC1CCC2(C)C3CCC4C5(O)CC(O)C6(O)C(CN7CC(C)CCC7C6(C)O)C5(O)CC42OC13O (stereo not drawn)", 1.01),
    ("COc1ccc2c(c1)c(CC(=O)O)c(C)n2C(=O)c1ccc(Cl)cc1", 1.02),
    ("COc1cc(N)c(Cl)cc1C(=O)NC1CCN(Cc2ccccc2)CC1", 0.99),
]

Exercise: Entry C[C@@H]1C(=O)O[C@H]2[C@H]1CC[C@@]1(C)C=CC(=O)[C@@]3(C)O[C@@]213 : reported normalized growth = ?
Solution: 1.01

Exercise: Entry COc1ccc2c(c1)c(CC(=O)OCC(=O)O)c(C)n2C(=O)c1ccc(Cl)cc1 : reported normalized growth = ?
Solution: 1.02

Exercise: Entry C[C@@H]1CC[C@H]2[C@@H](C)C(O)O[C@@H]3O[C@@]4(C)CC[C@@H]1[C@]32OO4 (stereo partly drawn) : reported normalized growth = ?
Solution: 0.263

###

- EXPERIMENT: chemical genetic growth profiling, strain panel (AID 1159580)
- SETUP CONDITIONS: S. cerevisiae deletion strains, growth OD, locus YKL085W, strain MDH1 (second series)
The campaign covered roughly 5,500 compounds. About 2,000 (36%) were called active. Roughly 18% stayed inconclusive and do not appear here. No stated cut-off is given here; in the data, active means normalized growth mostly below about 0.91 (no sharp cut-off); inconclusive means no clear call, values can overlap the other calls; inactive means mostly above about 0.92. The list shows a part of the results.
Give one outcome, nothing more. List: true (active), false (inactive)

Field: example entries. Status: answers known.
# COMPOUND, LABEL CLASS
measured = [
    ("CC(C)=CCCC1(C)C=Cc2c(O)c3c(c(CC=C(C)C)c2O1)OC12C(=CC4CC1C(C)(C)OC2(C/C=C(/C)C(=O)O)C4=O)C3=O (stereo not given)", "true"),
    ("COc1ccc2c(c1)c(CC(=O)OCC(=O)O)c(C)n2C(=O)c1ccc(Cl)cc1", "false"),
    ("CC1=CCC2C3(C)C1=CC(=O)OC3CC1C(C)(C)CC(O)C(O)C12C (stereo not given)", "false"),
    ("Cc1cc(O)ccc1Cl", "false"),
    ("Cc1cc(O)cc(=O)o1", "false"),
    ("COc1ccc2c(c1)c(CC(=O)O)c(C)n2C(=O)c1ccc(Cl)cc1", "false"),
    ("Cc1cc(O)cc(C)c1Cl", "false"),
    ("CC(C)(Sc1cc(C(C)(C)C)c(O)c(C(C)(C)C)c1)Sc1cc(C(C)(C)C)c(O)c(C(C)(C)C)c1", "false"),
]

Exercise: Lab log entry: CC(C)=CCCC1(C)C=Cc2c(O)c3c(c(CC=C(C)C)c2O1)OC12C(=CC4CC1C(C)(C)OC2(C/C=C(\C)C(N)=O)C4=O)C3=O (stereo not given) — outcome as called in the assay?
Solution: false

Exercise: Lab log entry: Cc1cc(C(C)(C)C)c(O)c(C(C)(C)C)c1 — outcome as called in the assay?
Solution: false

###

- EXPERIMENT: chemical genetic growth profiling, strain panel (AID 1159580)
- SETUP CONDITIONS: S. cerevisiae deletion strains, growth OD, locus YFL029C, strain CAK1, hits give low values
Screen size: about 5,500 compounds; about 2,000 (36%) were called active. Roughly 18% stayed inconclusive and do not appear here. The list shows a part of the results.
Examples of molecules with documented normalized growth follow.

# STRUCTURE NOTATION, normalized growth
data = [
    ("Cc1csc(NC(=O)Nc2ccc(C(F)(F)F)cc2)c1", "0.958 (inactive)"),
]

Exercise: Entry COc1ccc2nc3ccccc3c(N)c2c1 : reported normalized growth = ?
Solution: 0.579 (active)

Exercise: Entry N#Cc1c2ccccc2nc2ccccc12 : reported normalized growth = ?
Solution: 0.813 (active)

###

- EXPERIMENT: chemical genetic growth profiling, strain panel (AID 1159580);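 further: tested at 20 µM; growth read once vehicle control cultures reached saturation at 30 °C; 1 = growth at the plate median or of vehicle wells; lower values mean less growth of the strain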
- SETUP CONDITIONS: S. cerevisiae deletion strains, growth OD, locus YEL003W, strain gim4
Hit rate of the full screen: of about 5,500 compounds, about 2,000 (36%) were called active. Roughly 18% stayed inconclusive and do not appear here. Rule as the data show it: active = normalized growth mostly below about 0.91 (no sharp cut-off); inconclusive = no clear call, values can overlap the other calls; inactive = mostly above about 0.92. The list shows a part of the results.
Give one outcome, nothing more. List: active, inactive

Field: example entries. Status: answers known.
# COMPOUND, LABEL CLASS
rows = [
    ("CC(CC(=O)C(O)C(C)(C)O)C1C(=O)CC2(C)C3=CCC4C(C)(C)C(OC5OCC(O)C(O)C5O)CCC45CC35C(O)CC12C (stereo not drawn)", "inactive"),
    ("C[C@@H]1OC(O[C@H]2C(O[C@H]3CC[C@@]4(C)C(CC[C@]5(C)C4CC=C4C6CC(C)(C)CC[C@]6(C(=O)O)CC[C@]45C)[C@]3(C)CO)OC[C@H](O)[C@@H]2O)[C@H](O)[C@H](O)[C@H]1O (stereo partly drawn)", "active"),
]

Continue with the compound presented below.
Exercise: Lab log entry: CC1(C)CC(O)C2(C)CCC3(C)C(=CCC4C5(C)CCC(O)C(C)(CO)C5CCC43C)C2C1 (stereo not drawn) — outcome as called in the assay?
Solution: inactive

###

- EXPERIMENT: chemical genetic growth profiling, strain panel (AID 1159580);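 further: tested at 20 µM; growth read once vehicle control cultures reached saturation at 30 °C; 1 = growth at the plate median or of vehicle wells; lower values mean less growth of the strain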
- SETUP CONDITIONS: S. cerevisiae deletion strains, growth OD, locus YOL006C, strain TOP1, hits give low values
Out of some 5,500 compounds screened, about 2,000 (36%) were called active. Roughly 18% stayed inconclusive and do not appear here. The list shows a part of the results.
Examples of compounds with documented normalized growth follow.
// response body must contain only the number

Exercise: Entry COc1cccc(OC)c1OCCNCC1COc2ccccc2O1 (stereo not given) : reported normalized growth = ?
Solution: 1.03

###

- EXPERIMENT: chemical genetic growth profiling, strain panel (AID 1159580);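 further: tested at 20 µM; growth read once vehicle control cultures reached saturation at 30 °C; 1 = growth at the plate median or of vehicle wells; lower values mean less growth of the strain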
- SETUP CONDITIONS: S. cerevisiae deletion strains, growth OD, locus YDR069C, strain doa4, hits give low values
In all, about 5,500 compounds went through this assay and about 2,000 (36%) were called active. Another 18% or so got no clear call; they are omitted. Some of the results follow.
Mark each entry 1 if its normalized growth sits below 1, and 0 for all others.

Field: example entries. Status: answers known.
# STRUCTURE NOTATION, LABEL CLASS
rows = [
    ("COC(=O)Nc1nc2ccc(C(=O)c3ccccc3)cc2[nH]1", 1),
    ("Nc1c2ccccc2nc2ccccc12", 1),
]

Continue with the molecule presented below.
Exercise: Identify whether the molecule Nc1ccc(S(=O)(=O)Nc2cnc3ccccc3n2)cc1 records normalized growth below 1.
Solution: 0
